- Target or system: human A2B (Homo sapiens)
- Protocol: cAMP HTRF assay for Gs coupled receptor, agonist test
- Measurement context: agonist activity; HEK293 cells expressing recombinant human A2B; read-out: A2BAR EC50
Metric name: pEC50
The quantity pEC50 is defined as the negative base-10 logarithm of the molar concentration.

[
  {
    "Cpd smiles": "N#CCCSc1nc(N)c(C#N)c(-c2ccc(OCCO)cc2)c1C#N",
    "Target or system": "human A2B (Homo sapiens)",
    "pEC50": 6.24
  }
]

Report pEC50 for N#Cc1c(SCCC(N)=O)nc(N2CCCC2)c(C#N)c1-c1ccc(OCCO)cc1 tested on human A2B (Homo sapiens). 7.01

====

- Target or system: human A2B (Homo sapiens, UniProt P29275)
- Sequence (P29275 whole entry): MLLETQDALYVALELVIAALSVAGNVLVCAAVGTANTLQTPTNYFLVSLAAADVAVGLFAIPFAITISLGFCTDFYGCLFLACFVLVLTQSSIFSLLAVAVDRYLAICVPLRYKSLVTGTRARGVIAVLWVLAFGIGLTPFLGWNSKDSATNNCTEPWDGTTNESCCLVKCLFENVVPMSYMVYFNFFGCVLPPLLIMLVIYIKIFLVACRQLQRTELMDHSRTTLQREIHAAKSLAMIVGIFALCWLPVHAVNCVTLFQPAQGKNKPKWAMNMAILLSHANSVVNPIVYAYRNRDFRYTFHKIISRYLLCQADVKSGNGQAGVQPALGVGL
- Protocol: cAMP HTRF assay for Gs coupled receptor, agonist test
- Measurement context: agonist activity; HEK293 cells expressing recombinant human A2B; read-out: A2BAR EC50
Metric name: EC50

[
  {
    "Compound": "N#Cc1c(N)nc(SCc2cccc(OC(F)(F)F)c2)c(C#N)c1-c1ccc(OC2COC2)cc1",
    "Measured": "6.12 µM"
  },
  {
    "Compound": "N#Cc1c(SCc2cnccn2)nc(N2CCC2)c(C#N)c1-c1ccc(OCCO)cc1",
    "Measured": "0.213 µM"
  },
  {
    "Compound": "COCCOc1ccc(-c2c(C#N)c(SCc3cccnn3)nc(N3CCC3)c2C#N)cc1",
    "Measured": "> 10 µM"
  },
  {
    "Compound": "N#Cc1c(N)nc(SCC2CCOC2)c(C#N)c1-c1ccc(OC2CCOC2)cc1 (stereo not drawn)",
    "Measured": "> 10 µM"
  },
  {
    "Compound": "Cc1ncccc1CSc1nc(N2CCCC2)c(C#N)c(-c2ccc(OCCO)cc2)c1C#N",
    "Measured": "4.37 µM"
  }
]

Need EC50 of N#Cc1c(SCc2cccnn2)nc(C2CC2)c(C#N)c1-c1ccc(OCCOC(F)F)cc1 , thanks. > 10 µM

Need EC50 of N#Cc1c(SCc2cccnn2)nc(N2CC(F)C2)c(C#N)c1-c1ccc(OCCOC(F)F)cc1 , thanks. > 10 µM

Need EC50 of COCCOc1ccc(-c2c(C#N)c(N)nc(SCc3cccc4[nH]ncc34)c2C#N)cc1 , thanks. > 10 µM

====

- Target or system: human Adenosine A1 receptor (Homo sapiens, UniProt P30542)
- Construct: host or cells: CHO-K1
- Sequence (P30542 1-326): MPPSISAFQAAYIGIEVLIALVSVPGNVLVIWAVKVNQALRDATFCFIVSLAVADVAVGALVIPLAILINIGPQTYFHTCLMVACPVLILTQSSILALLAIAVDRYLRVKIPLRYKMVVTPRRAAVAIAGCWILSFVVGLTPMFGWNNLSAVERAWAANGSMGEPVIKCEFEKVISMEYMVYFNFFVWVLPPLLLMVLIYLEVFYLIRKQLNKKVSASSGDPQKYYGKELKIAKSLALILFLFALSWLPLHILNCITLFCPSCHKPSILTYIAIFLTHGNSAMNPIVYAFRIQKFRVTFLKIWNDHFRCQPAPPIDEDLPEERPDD
- Protocol: GTPγS scintillation proximity assay, agonist testing
- Assay type: biochemical
- Measurement context: agonist activity; membrane extracts of CHO-K1 cells expressing recombinant human A1; read-out: A1AR EC50
- Experimental: SPA ^35S-GTPγS experiments were conducted with Epics Therapeutics membrane preparations. cAMP HTRF assays were conducted with recombinant cell lines. […] Protocol for agonist testing: membranes are mixed with GDP (volume:volume). […] Then the plates are centrifuged for 10 min at 2000 rpm, incubated at room temperature and counted for 30 sec/well with a PerkinElmer TopCount™ reader. • Conditions for the GTPγS scintillation proximity assay are shown in Table 14.
pEC50 reference
The quantity pEC50 is defined as the negative base-10 logarithm of the molar concentration.

[
  {
    "Compound": "N#Cc1c(N)nc(SCc2cccnc2)c(C#N)c1-c1ccc(OCC(O)C(F)(F)F)cc1 (stereo not shown)",
    "pEC50": 6.51
  },
  {
    "Compound": "N#Cc1c(N)nc(SCC2OCCCO2)c(C#N)c1-c1ccc(OC2COC2)cc1",
    "pEC50": 6.68
  }
]

Okay, next one:
Need pEC50 of N#Cc1c(N)nc(SCC2COC2)c(C#N)c1-c1ccc(O[C@H]2C[C@H](O)C2)cc1 , thanks. 7.11

====

pEC50 reference
- Target or system: human Adenosine A1 receptor (Homo sapiens, UniProt P30542)
- Protocol: GTPγS scintillation proximity assay, agonist testing
- Measurement context: agonist activity; membrane extracts of CHO-K1 cells expressing recombinant human A1; read-out: A1AR EC50
The quantity pEC50 is defined as the negative base-10 logarithm of the molar concentration.

[
  {
    "Molecule": "CC(C)(O)COc1ccc(-c2c(C#N)c(SCc3cccnc3)nc(N3CCCC3)c2C#N)cc1",
    "Measured": 6.53
  }
]

Need pEC50 of N#Cc1c(N)nc(SCCC(F)(F)F)c(C#N)c1-c1ccc(OCCO)cc1 , thanks. 6.50

Need pEC50 of N#Cc1c(N)nc(SCC2CCO2)c(C#N)c1-c1ccc(OCCO)cc1 (stereo not shown) , thanks. 6.60

Need pEC50 of CNc1nc(OCC2COC2)c(C#N)c(-c2ccc(OC3COC3)cc2)c1C#N , thanks. 6.51

====

- Target or system: human Adenosine A1 receptor (Homo sapiens)
- Sequence (P30542 1-326): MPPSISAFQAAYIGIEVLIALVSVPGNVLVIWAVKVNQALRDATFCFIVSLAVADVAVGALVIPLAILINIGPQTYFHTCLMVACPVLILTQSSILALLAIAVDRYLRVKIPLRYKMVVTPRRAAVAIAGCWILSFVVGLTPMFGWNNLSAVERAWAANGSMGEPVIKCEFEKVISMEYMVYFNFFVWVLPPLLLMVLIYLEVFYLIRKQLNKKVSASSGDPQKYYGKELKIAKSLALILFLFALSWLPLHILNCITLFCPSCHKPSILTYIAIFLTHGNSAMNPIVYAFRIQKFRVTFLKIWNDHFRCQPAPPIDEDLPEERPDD
- Protocol: GTPγS scintillation proximity assay, agonist testing
- Measurement context: agonist activity; membrane extracts of CHO-K1 cells expressing recombinant human A1; read-out: A1AR EC50
- Experimental: SPA ^35S-GTPγS experiments were conducted with Epics Therapeutics membrane preparations. cAMP HTRF assays were conducted with recombinant cell lines. […] Protocol for agonist testing: membranes are mixed with GDP (volume:volume). […] Then the plates are centrifuged for 10 min at 2000 rpm, incubated at room temperature and counted for 30 sec/well with a PerkinElmer TopCount™ reader. • Conditions for the GTPγS scintillation proximity assay are shown in Table 14.
pEC50 reference
The quantity pEC50 is defined as the negative base-10 logarithm of the molar concentration.

[
  {
    "Compound": "CC(O)COc1ccc(-c2c(C#N)c(N)nc(SCc3cccnc3)c2C#N)cc1 (centres unmarked)",
    "Target or system": "human Adenosine A1 receptor (Homo sapiens)",
    "Measured": 8.07
  }
]

Need pEC50 of N#Cc1c(N)nc(SCc2ccnnc2)c(C#N)c1-c1ccc(OCCO)cc1 , thanks. 7.96

Need pEC50 of N#Cc1c(N)nc(SCc2ccncc2)c(C#N)c1-c1ccc(OCCO)cc1 , thanks. 8.09

Need pEC50 of N#Cc1c(SCC2COC2)nc(N2CC(O)C2)c(C#N)c1-c1ccc(OCCO)cc1 , thanks. 7.12

Need pEC50 of COCCOc1ccc(-c2c(C#N)c(SCC3COC3)nc(N3CC(F)C3)c2C#N)cc1 , thanks. 7.11

====

- Target or system: human A2B (Homo sapiens)
- Protocol: cAMP HTRF assay for Gs coupled receptor, agonist test
- Measurement context: agonist activity; HEK293 cells expressing recombinant human A2B; read-out: A2BAR EC50
- Protocol: SPA ^35S-GTPγS experiments were conducted with Epics Therapeutics membrane preparations. cAMP HTRF assays were conducted with recombinant cell lines. Dose response curves are performed in parallel with the reference compounds. For agonist test (96 well): 12 μL of cells are mixed with 12 μL of the test compound at increasing concentrations and then incubated 30 min at room temperature. […]
Metric name: EC50 (µM)
Please state the figure in µM; there is no need to write the unit.

[
  {
    "Cpd smiles": "N#Cc1c(N)nc(SCC2CCOCC2)c(C#N)c1-c1ccc(OC2COC2)cc1",
    "Target or system": "human A2B (Homo sapiens)",
    "Result unit": "µM",
    "EC50": 1.12
  },
  {
    "Cpd smiles": "N#Cc1c(SCc2cccnc2)nc(N2CCC2)c(C#N)c1-c1ccc(OCCO)cc1",
    "Target or system": "human A2B (Homo sapiens)",
    "Result unit": "µM",
    "EC50": 0.0039
  }
]

Report EC50 for CN(C)C(=O)CSc1nc(N)c(C#N)c(-c2ccc(OCCO)cc2)c1C#N tested on human A2B (Homo sapiens). 2.46

Report EC50 for COCCOc1ccc(-c2c(C#N)c(N)nc(S[C@H](C)c3ccccn3)c2C#N)cc1 tested on human A2B (Homo sapiens). 6.45

Report EC50 for N#Cc1c(N)nc(SCc2ccncc2)c(C#N)c1-c1ccc(OCCO)cc1 tested on human A2B (Homo sapiens). 0.0005

The reported measurements were obtained from patent US20250170112A1.
